tested on: SW-620 colon; experiment: NCI tumour cell line growth inhibition, 48 h
recorded endpoint: TGI

molecule | test result
COc1ccc(/C=C(\C2=NC(=O)CS2)c2nc3ccccc3[nH]2)cc1 | > 100 µM
c1cnc2nc3n(c2c1)CSC3 | > 100 µM
CCCCCCn1c2c(c3c(O)cccc31)C(=O)c1ccccc1-2 | 34.8 µM

For each of the items listed, what is its TGI?
1. CSCC(COC(C)=O)(CSC)c1ccncc1
2. CN(CCCCN)c1ccc2c(=O)[nH][nH]c(=O)c2c1
3. CN(C)C1(c2cc3ccccc3s2)CCCCC1
4. O=P(Nc1cccc(Cl)c1)(Oc1ccccc1)N(CCCl)CCCl (stereo unspecified)
5. COc1cc2c(cc1OC)-c1[nH]c3ccc([N+](=O)[O-])cc3c1CC(=O)N2
6. O=C(NCCCc1cn[nH]c(=O)n1)c1cccc2nc3ccccc3nc12
7. Cc1ccc(S(=O)(=O)NCCCSCCO)cc1

A:
> 100 µM
> 100 µM
> 100 µM
30.7 µM
> 100 µM
> 100 µM
> 100 µM

GET /value?item= `CCc1n[nH]c(=O)n1N=C(c1ccccc1)c1ccccc1` &field=TGI returns > 100 µM
